Reference for the values: paper PMC8942502

measured-target: LSD1-CoREST complex (Homo sapiens)
assay-info: LSD1-CoREST inhibition assay (Amplex UltraRed/HRP, H3K4 peptide)
particulars: mean ± SD from two experiments in duplicate; 10 min preincubation
Consider the following molecules; for each one, report its pIC50.
Numbers only, as −log10 of the molar value.

Completed entries (count: 2):
If you can, please state the reported pIC50 value of Cl.NC1CC1c1ccc(NC(=O)c2ccc(-c3cccs3)cc2)cc1 (stereo not drawn) .
5.97

If you can, please state the reported pIC50 value of Cl.NC1CC1c1ccc(NC(=O)c2cccc(-c3ccccc3)c2)cc1 (stereo not drawn) .
6.83

---
If you can, please state the reported pIC50 value of Cl.NC1CC1c1ccc(NC(=O)c2cccc(-c3ccco3)c2)cc1 (stereo not drawn) .
6.96
